B1: ZBTB22 (parent)
chain: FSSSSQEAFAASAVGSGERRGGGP

Variants of: B1
Experiment: protein stability index of a GFP-peptide fusion (GPS, HEK-293T) (PSI 1-6); higher = more stable;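 note: lentivirally expressed fusions sorted by FACS into six bins by GFP to DsRed ratio, PSI derived from sequencing read proportions per bin multiplied by bin number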
Settings: c terminus: a fixed tail appended
Please mark true (1) if the recorded protein stability index is equal to or greater than 3, and false (0) if it falls below.

A10I
false (0)
F9Y
true (1)
V14E
true (1)
E7A
false (0)
P24A
true (1)
F9H
true (1)
S4A
true (1)
G22E
true (1)
S3E
true (1)
S16N
true (1)
A11W
false (0)
G17R
true (1)
G15T
true (1)
S4I
true (1)
S4L
true (1)
G22A
true (1)
S16R
true (1)
G17M
true (1)
P24W
false (0)
F9I
true (1)
S16F
false (0)
V14C
true (1)
Q6L
false (0)
Q6E
true (1)
G23W
false (0)
A8M
false (0)
S5N
true (1)
S12N
true (1)
G15F
false (0)
S5Q
true (1)
G15Y
false (0)

Reference source: the supplement of paper PMC10567573
